Cited source: ChEMBL document CHEMBL4184332

Listed below: pKi values for each entry.
Tested on: Carbonic anhydrase 9 (Homo sapiens)
Assay explanation: Inhibition of recombinant human carbonic anhydrase-9 catalytic domain incubated for 15 mins by stopped-flow CO2 hydrase assay
// pKi here means minus log10 of the molar concentration (mol/L)

Sample records with pKi:
INSERT INTO assay_data (compound, test_result) VALUES
  ('NS(=O)(=O)c1ccc(NC(=O)Cc2ccccc2Nc2c(Cl)cccc2Cl)cc1', 8.28),
  ('CC(C(=O)NCCc1ccc(S(N)(=O)=O)cc1)c1ccc(-c2ccccc2)c(F)c1 (racemic)', 7.42),
  ('COc1ccc2c(c1)c(CC(=O)NCCc1ccc(S(N)(=O)=O)cc1)c(C)n2C(=O)c1ccc(Cl)cc1', 7.20),
  ('CC(C)Cc1ccc(C(C)C(=O)NCCOc2ccc(S(N)(=O)=O)cc2)cc1 (racemic)', 7.58),
  ('CC(C(=O)NCCc1ccc(S(N)(=O)=O)cc1)c1cccc(C(=O)c2ccccc2)c1 (racemic)', 7.41);

INPUT: Report pKi for CC(C(=O)NCCCCOc1ccc(S(N)(=O)=O)cc1)c1ccc(-c2ccccc2)c(F)c1 (stereo not drawn) please.
OUTPUT: 7.34

INPUT: One more compound: COc1ccc2cc(C(C)C(=O)NCCOc3ccc(S(N)(=O)=O)cc3)ccc2c1 (racemic)
OUTPUT: 7.67

INPUT: One more compound: CC(C)Cc1ccc(C(C)C(=O)NCCCOc2ccc(S(N)(=O)=O)cc2)cc1 (racemic)
OUTPUT: 7.98

INPUT: One more compound: CC(C(=O)NCCCOc1ccc(S(N)(=O)=O)cc1)c1ccc(-c2ccccc2)c(F)c1 (racemic)
OUTPUT: 7.76

INPUT: One more compound: NS(=O)(=O)c1ccc(OCCCNC(=O)C2CCn3c(C(=O)c4ccccc4)ccc32)cc1 (stereo not drawn)
OUTPUT: 7.74

INPUT: One more compound: COc1ccc2cc(C(C)C(=O)NCCCCOc3ccc(S(N)(=O)=O)cc3)ccc2c1 (racemic)
OUTPUT: 7.79

INPUT: One more compound: NS(=O)(=O)c1ccc(OCCCCNC(=O)Cc2ccccc2Nc2c(Cl)cccc2Cl)cc1
OUTPUT: 7.28

INPUT: One more compound: CC(C(=O)NCCOc1ccc(S(N)(=O)=O)cc1)c1cccc(C(=O)c2ccccc2)c1 (racemic)
OUTPUT: 7.12

INPUT: One more compound: COc1ccc2cc(C(C)C(=O)Nc3ccc(S(N)(=O)=O)cc3)ccc2c1 (racemic)
OUTPUT: 7.90

INPUT: One more compound: COc1ccc2c(c1)c(CC(=O)NCCOc1ccc(S(N)(=O)=O)cc1)c(C)n2C(=O)c1ccc(Cl)cc1
OUTPUT: 6.75

INPUT: One more compound: COc1ccc2cc(C(C)C(=O)NCCc3ccc(S(N)(=O)=O)cc3)ccc2c1 (racemic)
OUTPUT: 7.89

INPUT: One more compound: NS(=O)(=O)c1ccc(OCCCNC(=O)Cc2ccccc2Nc2c(Cl)cccc2Cl)cc1
OUTPUT: 6.86

INPUT: One more compound: CC(C(=O)Nc1ccc(S(N)(=O)=O)cc1)c1cccc(C(=O)c2ccccc2)c1 (racemic)
OUTPUT: 8.29
